- ASSAY_NOTES: chemical genetic growth profiling, strain panel (AID 1159580);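 further: tested at 20 µM; growth read once vehicle control cultures reached saturation at 30 °C; 1 = growth at the plate median or of vehicle wells; lower values mean less growth of the strain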
- MEASUREMENT_PARAMETERS: S. cerevisiae deletion strains, growth OD, locus YDL035C, strain GPR1, hits give low values
In all, about 5,500 compounds went through this assay and about 2,000 (36%) were called active. About 18% were inconclusive and are not listed. The list shows a part of the results.
// normalized growth lookup, one value per entry
API note: the answer field is a bare number with no unit suffix.

Worked examples, 3 compounds total:
>>> reported_measurement("O=C1NCC2(CCN(CCc3ccccc3)CC2)O1")
1.01
>>> reported_measurement("COc1ccc(C(=O)CC(=O)O)c2c1C=CC(C)(C)O2")
1.02
>>> reported_measurement("C=CCc1ccc(O)c(OC)c1")
0.992

The reported value for COc1cc(CNC(=O)CCCC/C=C/C(C)C)ccc1O in terms of normalized growth is 0.972
